FYI, the data here is from patent US20250263376A1.

Kindly state MTT, Fibroblasts (BJ) for each of the entries shown.
system: fibroblasts (BJ); assay: Safety, MTT test in fibroblasts; assay type: cell-based; settings: 200 μM, 48 hours

Asked: MTT, Fibroblasts (BJ) for "O=C(/C=C/c1ccccc1)NCCCCCO" ?
Given back: 87.76 ± 2.71 % of solvent control

Asked: Which MTT, Fibroblasts (BJ) reading was recorded for the compound "O=C(/C=C/c1ccc(Cl)cc1)NCCCO" ?
Given back: 85.52 ± 3.08 % of solvent control

Asked: Any idea what its MTT, Fibroblasts (BJ) is? The compound is "O=C(/C=C/c1ccc(Cl)cc1)NCCCCCO"
Given back: 98.94 ± 4.04 % of solvent control

Asked: What value of MTT, Fibroblasts (BJ) has been reported for the following compound? "O=C(/C=C/c1ccc(Cl)cc1)NCCO"
Given back: 100.37 ± 3.92 % of solvent control

Asked: Using the record for "Cc1ccc(/C=C/C(=O)NCCCCCO)cc1" , report its MTT, Fibroblasts (BJ).
Given back: 96.13 ± 3.64 % of solvent control

---

Target: UniProtKB C7FF04
Sequence (C7FF04 2-392): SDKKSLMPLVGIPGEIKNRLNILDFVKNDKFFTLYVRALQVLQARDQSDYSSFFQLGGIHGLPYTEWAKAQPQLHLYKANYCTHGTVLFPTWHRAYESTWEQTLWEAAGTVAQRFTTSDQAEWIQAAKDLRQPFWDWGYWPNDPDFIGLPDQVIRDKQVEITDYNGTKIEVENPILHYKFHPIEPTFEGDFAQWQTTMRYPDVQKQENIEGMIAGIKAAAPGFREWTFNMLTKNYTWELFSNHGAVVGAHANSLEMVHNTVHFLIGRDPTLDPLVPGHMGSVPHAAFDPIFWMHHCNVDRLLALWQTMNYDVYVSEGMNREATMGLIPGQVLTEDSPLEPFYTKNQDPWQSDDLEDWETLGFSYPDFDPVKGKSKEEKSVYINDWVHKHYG
Sequence (G1K3P4 entry or part of it, further chain): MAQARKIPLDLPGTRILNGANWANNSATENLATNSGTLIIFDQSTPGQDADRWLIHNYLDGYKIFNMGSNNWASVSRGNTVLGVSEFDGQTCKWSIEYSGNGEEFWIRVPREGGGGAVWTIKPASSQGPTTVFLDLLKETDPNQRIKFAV
Assay: Inhibition of commercial mushroom tyrosinase, substrate L-tyrosine
Type: biochemical
Details: 500 μM; read-out: Tyrosinase inhibition with L-tyrosine [%]
Protocol: Studies on the Inhibition of the Activity of Commercial Tyrosinase from Mushroom (Sigma: T3824) The following substrates were used for the enzymatic reaction: L-tyrosine and L-3,4-dihyroxyphenylalanine (L-DOPA). Both substrates were used in independent experiments. […] After a 25-minute incubation, the absorbance was measured at 475 nm using a microplate reader. […]
outcome-measure: inhibition at 500 µM (%)
Respond numerically; units are % and should not be typed.

Asked: Notebook: pull reported inhibition at 500 µM for UniProtKB C7FF04, entry O=C(/C=C/c1ccc(Cl)cc1)NCCCCO [H-331/21]
Given back: 82.5

Asked: Request body: readout inhibition at 500 µM, system UniProtKB C7FF04, query O=C(/C=C/c1ccc(Cl)cc1Cl)NCCCO [H-296/20] . Return the value.
Given back: 17.9

Asked: Hi! What's the reported inhibition at 500 µM for O=C(/C=C/c1ccc(Cl)cc1)NCCO [H-427/21] on UniProtKB C7FF04?
Given back: 67.5

Asked: What inhibition at 500 µM appears in the records for this compound with UniProtKB C7FF04? CC(CO)NC(=O)/C=C/c1ccc(Cl)cc1 (stereo not drawn) [Compound A-102]
Given back: 75.5

Asked: Request: inhibition at 500 µM, test system UniProtKB C7FF04, entry O=C(/C=C/c1ccc(Cl)cc1Cl)NCCCCCO [H-297/20]
Given back: 19.1

Asked: Field: inhibition at 500 µM (UniProtKB C7FF04). Entry: O=C(/C=C/c1ccc(Cl)cc1)NCCCO [H-330/21]
Given back: 82.5

Asked: Param readout= inhibition at 500 µM; system= UniProtKB C7FF04; entry= Cc1ccc(/C=C/C(=O)NCCCCO)cc1 [H-411/21] ; returns value.
Given back: 20.4

Asked: Please provide the recorded inhibition at 500 µM for CCC(CO)NC(=O)/C=C/c1ccc(Cl)cc1 (stereo not drawn) [Compound A-01] , tested on UniProtKB C7FF04.
Given back: 61.8

Asked: Look up inhibition at 500 µM with UniProtKB C7FF04 for this compound: O=C(/C=C/c1ccc(Cl)cc1Cl)N1CCC(O)CC1 [H-310/20]
Given back: 19.2

Asked: Form field - read-out: inhibition at 500 µM; system: UniProtKB C7FF04; submitted item: O=C(/C=C/c1ccc(Cl)cc1Cl)NCCCCO [H-298/20]
Given back: 20

Asked: Any idea what inhibition at 500 µM came out for CCC(CO)NC(=O)/C=C/c1ccc(Cl)cc1Cl (stereo not drawn) [H-285/20] on UniProtKB C7FF04?
Given back: 14.6

Asked: Record lookup: for UniProtKB C7FF04, what inhibition at 500 µM belongs to Cc1ccc(/C=C/C(=O)NC(C)CO)cc1 (stereo not drawn) [Compound A-69] ?
Given back: 4.4

---

system: B16-F10 murine melanoma cell line; assay: Cytotoxicity (MTT) in B16-F10 murine melanoma cells; type: cell-based; details: 200 μM, 48 h
outcome-measure: Cytotoxicity study in B16F10 cells, % viability (%)
// return numeric value only (unit: %, not printed)

Asked: Quick check: Cytotoxicity study in B16F10 cells, % viability of CCC(O)CNC(=O)/C=C/c1ccc(Cl)cc1Cl (stereo not shown) ?
Given back: 90.8

Asked: Find the recorded Cytotoxicity study in B16F10 cells, % viability belonging to "Cc1ccc(/C=C/C(=O)NCCCCO)cc1" and report it.
Given back: 34.9

Asked: I would be grateful if you could share the reported Cytotoxicity study in B16F10 cells, % viability for "O=C(/C=C/c1ccc(Cl)cc1Cl)NCCCCCO" .
Given back: 73.6

Asked: Value lookup for Cytotoxicity study in B16F10 cells, % viability; key = "O=C(/C=C/c1ccccc1)NCCCO"
Given back: 70.5

---

Would you kindly list LDH, Neuroblastoma SH-SY5Y for each of these compounds?
test system: neuroblastoma SH-SY5Y; experiment: Safety, LDH test in SH-SY5Y; assay type: cell-based; conditions: 100 μM, 48 hours, vs Triton X-100

Asked: Endpoint output: LDH, Neuroblastoma SH-SY5Y of "O=C(/C=C/c1ccc(Cl)cc1)NCCO" . Value?
Given back: 3.09 percentage of positive control

Asked: Find the recorded LDH, Neuroblastoma SH-SY5Y belonging to "O=C(/C=C/c1ccccc1)NCCCCCO" and report it.
Given back: 5.33 percentage of positive control

Asked: Quick one: LDH, Neuroblastoma SH-SY5Y of "O=C(/C=C/c1ccc(Cl)cc1)NCCCCCO" ?
Given back: 4.90 percentage of positive control

Asked: Recorded LDH, Neuroblastoma SH-SY5Y of "O=C(/C=C/c1ccc(Cl)cc1)NCCCO" , please.
Given back: 6.19 percentage of positive control

Asked: Looking for the measured LDH, Neuroblastoma SH-SY5Y of "Cc1ccc(/C=C/C(=O)NCCCCCO)cc1" , can you help?
Given back: 3.90 percentage of positive control

---

tested on: S. typhimurium TA100; assay: Ames microplate test, TA100; type: cell-based, Salmonella typhimurium; details: 1.0 mM, without S9
Label Condition met for high-side Increase in the number of yellow wells compared to the reference level, TA100 (at or above 0.8) and Condition not met for low-side Increase in the number of yellow wells compared to the reference level, TA100 (below it).

Asked: Exam item: decide whether the reported Increase in the number of yellow wells compared to the reference level, TA100 for O=C(/C=C/c1ccc(Cl)cc1)NCCCCCO [Compound A-111] is at least 0.8.
Given back: Condition not met

Asked: Would you say CCC(O)CNC(=O)/C=C/c1ccc(Cl)cc1 (stereo not drawn) [Compound A-67] shows Increase in the number of yellow wells compared to the reference level, TA100 at minimum 0.8?
Given back: Condition met

Asked: Could you verify whether the entry O=C(/C=C/c1ccccc1)NCCCCCO [Compound A-133] shows Increase in the number of yellow wells compared to the reference level, TA100 of no less than 0.8?
Given back: Condition met

Asked: State whether the measured Increase in the number of yellow wells compared to the reference level, TA100 reaches 0.8, counting equality as reaching it, for CC(CO)NC(=O)/C=C/c1ccc(Cl)cc1 (stereo not drawn) [Compound A-102]
Given back: Condition not met

Asked: Quick check, Increase in the number of yellow wells compared to the reference level, TA100 >= 0.8? Cc1ccc(/C=C/C(=O)NCCCCCO)cc1 [H-415/21]
Given back: Condition not met

---

tested on: hepatocarcinoma HepG2; assay: Safety, LDH test in HepG2; format: cell-based; conditions: 150 μM, 48 hours, vs Triton X-100
outcome-measure: LDH, Hepatocarcinoma HepG2

Asked: Request the reported LDH, Hepatocarcinoma HepG2 associated with O=C(/C=C/c1ccc(Cl)cc1)NCCCO [H-330/21]
Given back: 4.90 percentage of positive control

Asked: # lookup: LDH, Hepatocarcinoma HepG2 of O=C(/C=C/c1ccccc1)NCCCCCO [Compound A-133]
Given back: 7.07 percentage of positive control

Asked: Which LDH, Hepatocarcinoma HepG2 is listed for O=C(/C=C/c1ccc(Cl)cc1)NCCO [H-427/21] ?
Given back: 4.45 percentage of positive control

Asked: # input molecule: O=C(/C=C/c1ccc(Cl)cc1)NCCCCCO [Compound A-111] ; wanted: its LDH, Hepatocarcinoma HepG2
Given back: 4.73 percentage of positive control

Asked: Returns the measured LDH, Hepatocarcinoma HepG2 for the input molecule. Input: Cc1ccc(/C=C/C(=O)NCCCCCO)cc1 [H-415/21]
Given back: 7.24 percentage of positive control

---

system: E. coli WP2; experiment: Ames microplate test, E. coli WP2; conditions: 2.0 mM, + S9;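 further: bacteria exposed to compound for 90 min at 37 °C in 24-well plates, then transferred with indicator medium to 384-well plates and incubated 48 h before yellow well counting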
Give Increase in the number of yellow wells compared to the reference level, E. coli WP2 for every item shown.

Asked: Which Increase in the number of yellow wells compared to the reference level, E. coli WP2 value is on record for "O=C(/C=C/c1ccccc1)NCCCCCO" ?
Given back: 0.53

Asked: What value of Increase in the number of yellow wells compared to the reference level, E. coli WP2 has been recorded for this entry: CCC(O)CNC(=O)/C=C/c1ccc(Cl)cc1 (stereo not shown)
Given back: 1.42

Asked: Tell me the measured Increase in the number of yellow wells compared to the reference level, E. coli WP2 of "O=C(/C=C/c1ccccc1)NCCCCCCO" , please.
Given back: 0.75

Asked: Query: Increase in the number of yellow wells compared to the reference level, E. coli WP2; subject: "O=C(/C=C/c1ccc(Cl)cc1)NCCCCCO"
Given back: 0.98
